- Test system: HCT116 cells
- MEASUREMENT PROTOCOL: Combination mutation analysis, TMP dose response MFI
- Type: cell-based, human
- STATED CONDITIONS: TMP dose (log) −4.95
TEST READOUT: Stabilization ratio

molecule="OT-hDHFRC-032: combination mutant hDHFR (Y122I, H131R, E144G) (protein, UniProt P00374 1-187, looked up, variant Y122I H131R E144G) Dihydrofolate reductase: MVGSLNCIVAVSQNMGIGKNGDLPWPPLRNEFRYFQRMTTTSSVEGKQNLVIMGKKTWFSIPEKNRPLKGRINLVLSRELKEPPQGAHFLSRSLDDALKLTEQPELANKVDMVWIVGGSSVIKEAMNHPGRLKLFVTRIMQDFGSDTFFPEIDLEKYKLLPEYPGVLSDVQEEKGIKYKFEVYEKND" test_readout="Stabilization ratio" reported=1.94
molecule="OT-DHFRC-029: combination mutant hDHFR (I17V, Y122I) (protein, UniProt P00374 1-187, looked up, variant I17V Y122I) Dihydrofolate reductase: MVGSLNCIVAVSQNMGVGKNGDLPWPPLRNEFRYFQRMTTTSSVEGKQNLVIMGKKTWFSIPEKNRPLKGRINLVLSRELKEPPQGAHFLSRSLDDALKLTEQPELANKVDMVWIVGGSSVIKEAMNHPGHLKLFVTRIMQDFESDTFFPEIDLEKYKLLPEYPGVLSDVQEEKGIKYKFEVYEKND" test_readout="Stabilization ratio" reported=21.76
molecule="OT-hDHFRC-031: combination mutant hDHFR (N127Y, Y122I) (protein, UniProt P00374 1-187, looked up, variant N127Y Y122I) Dihydrofolate reductase: MVGSLNCIVAVSQNMGIGKNGDLPWPPLRNEFRYFQRMTTTSSVEGKQNLVIMGKKTWFSIPEKNRPLKGRINLVLSRELKEPPQGAHFLSRSLDDALKLTEQPELANKVDMVWIVGGSSVIKEAMYHPGHLKLFVTRIMQDFESDTFFPEIDLEKYKLLPEYPGVLSDVQEEKGIKYKFEVYEKND" test_readout="Stabilization ratio" reported=20.77
molecule="OT-hDHFRC-030: combination mutant hDHFR (Y122I, M140I) (protein, UniProt P00374 1-187, looked up, variant Y122I M140I) Dihydrofolate reductase: MVGSLNCIVAVSQNMGIGKNGDLPWPPLRNEFRYFQRMTTTSSVEGKQNLVIMGKKTWFSIPEKNRPLKGRINLVLSRELKEPPQGAHFLSRSLDDALKLTEQPELANKVDMVWIVGGSSVIKEAMNHPGHLKLFVTRIIQDFESDTFFPEIDLEKYKLLPEYPGVLSDVQEEKGIKYKFEVYEKND" test_readout="Stabilization ratio" reported=2.62
